meta.source: patent US20240051952A1

Experiment: Kinetic solubility
Type: physicochemical
Conditions: Dulbecco's phosphate buffered saline (DPBS), aqueous buffer, kinetic from dmso stock, DPBS pH 7.4, 25° C., 200 μM test compound
Protocol: 10 μL of 10 mM DMSO stock solution were aliquotted to 490 μL of DMSO solution and separately 490 μL of Dulbecco's phosphate buffer saline, DPBS, pH 7.4 solution in 1.2 mL 96-well plates in duplicate. Final concentration was 200 μM of the test compound. Samples were incubated at 25° C. with shaking at 200 rpm for 16 h. Samples were centrifuged at 3500 rpm for 20 min at 25° C., and supernatant was submitted for HPLC analysis. Kinetic solubility was measured using the following equation: […]
Below, each of the compounds is paired with its reported solubility at 16 h value.
Measure: solubility at 16 h (µM)

>>> number("CC1CCc2nc(Nc3nc4cc(C(=O)NCCOCCO)ccc4n3C)sc2C1 (centres unmarked) [Example 7]")
7.2
>>> number("Cl.Cn1c(Nc2nc3c(s2)CNCC3)nc2cc(C(=O)NCCOCCO)ccc21 [Example 9]")
2.8
>>> number("Cn1c(Nc2nc3c(s2)CC(C)(C)CC3)nc2cc(C(=O)NCCOCCO)ccc21 [Example 6]")
8.1
>>> number("COCCNC(=O)c1ccc2c(c1)nc(Nc1nc3c(s1)CCC3)n2C [Example 8]")
6.9
>>> number("Cn1c(Nc2nc3ccccc3o2)nc2cc(C(=O)NCCNC3=NCCN3)ccc21 [Example 22]")
3.5

---

Tested on: Human Heme Oxygenase-1 (HMOX-1)
Assay: ELISA assay to measure human heme oxygenase-1 (HMOX-1) in HepG2 lysate
Assay type: cell-based
Conditions: fold change of human HMOX1 protein levels relative to DMSO control, HepG2
Measure: Maximum Fold induction

>>> number("Cn1c(Nc2nc3ccccc3o2)nc2cc(C(=O)NCCOCC(=O)O)ccc21 [Example 29]")
12
>>> number("Cn1c(Nc2nc3ccc(OCCO)cc3o2)nc2cc(C(=O)NCCNC3=NCCN3)ccc21 [Example 106]")
6
>>> number("Cn1c(Nc2nc3ncccc3o2)nc2cc(C(=O)O)ccc21 [Example 111]")
3
>>> number("COCCNC(=O)c1ccc2c(c1)nc(Nc1nc3c(s1)COCC3)n2C [Example 11]")
5
>>> number("O=C(O)c1ccc2c(c1)nc(Nc1nc3ccc(OC(F)(F)F)cc3o1)n2CC1CCOC1 (stereo not drawn) [Example 87]")
21
>>> number("Cn1c(Nc2nc3ccccc3o2)nc2cc(C(=O)NCC3(O)COC3)ccc21 [Example 26]")
26

---

Test system: Human Heme Oxygenase-1 (HMOX-1)
Test: ELISA assay to measure human heme oxygenase-1 (HMOX-1) in HepG2 lysate
Type: cell-based
Conditions: fold change of human HMOX1 protein levels relative to DMSO control, HepG2
From the text: Example 143. ELISA Assay to Measure Human Heme Oxygenase-1 (HMOX-1) in HepG2 lysate Reagents and Technical Notes: ELISA capture antibody, standard HO-1, detection antibody and streptavidin HRP were supplied in the DuoSet IC Human total HO-1 ELISA from R&D systems (DYC3776-2). The substrate cocktail was KPL LumiGLO reserve Chemiluminescent Substrate (54-71-00). […] Measurement of HMOX1 (“HO-1”) • 1. […] Measured chemiluminescence on spectramax M5 using 150 ms integration. […]
Values of Maximum Fold induction strictly less than 20 map to True, and values of at least 20 map to False.

>>> discrete_label("Cn1c(Nc2nc3ccccc3o2)nc2cc(C(=O)NCCOCC(C)(C)O)ccc21")
"True"
>>> discrete_label("CS(=O)(=O)CCn1c(Nc2nc3ccc(OC(F)(F)F)cc3o2)nc2cc(C(=O)O)ccc21")
"True"
>>> discrete_label("Cl.Cn1c(Nc2nc3c(s2)CNCC3)nc2cc(C(=O)NCCOCCO)ccc21")
"True"
>>> discrete_label("Cn1c(Nc2nc3ccccc3o2)nc2cc(/C(=N/O)C(F)(F)F)ccc21")
"True"
>>> discrete_label("CC(C)c1ccc2nc(Nc3nc4cc(C(=O)NCCO)ccc4n3C)oc2c1")
"False"
>>> discrete_label("O=C(O)c1ccc2c(c1)nc(Nc1nc3ccc(OC(F)(F)F)cc3o1)n2CC1(O)COC1")
"False"
>>> discrete_label("COCCNC(=O)c1ccc2c(c1)nc(Nc1nc3ncccc3o1)n2C")
"True"
>>> discrete_label("CC(=O)N1CCc2nc(Nc3nc4cc(C(=O)NCCOCCO)ccc4n3C)sc2C1")
"True"
>>> discrete_label("Cn1c(Nc2nc3ccc(OC(F)(F)F)cc3o2)nc2cc(C(=O)NCC3(O)COC3)ccc21")
"False"
>>> discrete_label("Cn1c(Nc2nc3ccccc3o2)nc2cc(C(N)C(F)(F)F)ccc21 (stereo not shown)")
"False"
>>> discrete_label("Cn1c(Nc2nc3cc(F)c(C(F)(F)F)cc3o2)nc2cc(C(=O)NOCCO)ccc21")
"False"
>>> discrete_label("Cn1c(Nc2nc3ccc(C(F)(F)F)cc3o2)nc2cc(C(=O)NCCOCC(C)(C)O)ccc21")
"False"
>>> discrete_label("Cn1c(Nc2nc3ccccc3o2)nc2cc(C(=O)NCCN3CCOCC3)ccc21")
"True"
>>> discrete_label("CN(C)CCONC(=O)c1ccc2c(c1)nc(Nc1nc3ccccc3o1)n2C")
"False"

---

Tested on: Human Heme Oxygenase-1 (HMOX-1)
Assay: ELISA assay to measure human heme oxygenase-1 (HMOX-1) in HepG2 lysate
Assay type: cell-based
Settings: fold change of human HMOX1 protein levels relative to DMSO control, HepG2
Measure: Maximum Fold induction

>>> result("CC1CCc2nc(Nc3nc4cc(C(=O)NCCOCCO)ccc4n3C)sc2C1 (centres unmarked) [Example 7]")
27
>>> result("COCCNC(=O)c1ccc2c(c1)nc(Nc1nc3ccc(OC(F)(F)F)cc3o1)n2CCS(C)(=O)=O [Example 90]")
22
>>> result("Cn1c(Nc2nc3cccc(C(F)(F)F)c3o2)nc2cc(C(=O)NCCOCCO)ccc21 [Example 117]")
38
>>> result("Cn1c(Nc2nc3ccc(OCCO)cc3o2)nc2cc(C(=O)NCCO)ccc21 [Example 103]")
"37-39"
>>> result("COCCNC(=O)c1ccc2c(c1)nc(Nc1nc3cc(Cl)ccc3[nH]1)n2C [Example 83]")
"16-21"
>>> result("COCCOc1ccc2nc(Nc3nc4cc(C(=O)NOCCO)ccc4n3C)oc2c1 [Example 128]")
"48-75"
>>> result("CN(C)CC(=O)NCCNC(=O)c1ccc2c(c1)nc(Nc1nc3ccc(C(F)(F)F)cc3o1)n2C [Example 40]")
"56-93"
>>> result("Cn1c(Nc2nc3ccc(OC(F)(F)F)cc3o2)nc2cc(C(=O)NC(CO)(CO)CO)ccc21 [Example 47]")
"13-16"
>>> result("Cn1c(Nc2nc3ccc(OCC(F)(F)F)cc3o2)nc2cc(C(=O)NCCO)ccc21 [Example 100]")
"24-35"
>>> result("Cn1c(Nc2nc3cc(F)ccc3o2)nc2cc(C(=O)O)ccc21 [Example 66]")
"19-22"
>>> result("O=C(O)c1ccc2c(c1)nc(Nc1nc3ccc(OC(F)(F)F)cc3s1)n2C1CCOCC1 [Example 2d]")
"10 (n = 2)"
>>> result("COCCNC(=O)c1ccc2c(c1)nc(Nc1nc3ccc(OC(F)(F)F)cc3s1)n2C1CCOCC1 [Example 2e]")
"20-33"
>>> result("COCCOc1ccc2nc(Nc3nc4cc(C(=O)NCCOCCO)ccc4n3C)oc2c1 [Example 58]")
"41-60"
>>> result("COCCNC(=O)c1ccc2c(c1)nc(Nc1nc3ccc(OCCO)cc3o1)n2C [Example 102]")
"26-40"
>>> result("Cl.Cn1c(Nc2nc3ccccc3o2)nc2cc(C(=O)NCCN)ccc21 [Example 18]")
"41-52"
>>> result("Cn1c(Nc2nc3ccc(OC(F)(F)F)cc3o2)nc2cc(C(=O)NOCCO)ccc21 [Example 126]")
"33-37"
>>> result("Cn1c(Nc2nc3ccc(C(F)(F)F)cc3o2)nc2cc(C(=O)NCCO)ccc21 [Example 33]")
"32-45"

---

System: Human Heme Oxygenase-1 (HMOX-1)
Experiment: ELISA assay to measure human heme oxygenase-1 (HMOX-1) in HepG2 lysate
Assay type: cell-based
Details: fold change of human HMOX1 protein levels relative to DMSO control, HepG2
Measure: Maximum Fold induction

>>> number("Cn1c(Nc2nc3ccccc3o2)nc2cc(C(=O)NCCNC3=NCCN3)ccc21")
18
>>> number("Cn1c(Nc2nc3ccc(C(F)(F)F)cc3o2)nc2cc(C(=O)NCCN3CCCC3)ccc21")
42
>>> number("Cl.Cn1c(Nc2nc3ccc(OCCO)cc3o2)nc2cc(C(=O)NCCN)ccc21")
36
>>> number("CC(O)COCCNC(=O)c1ccc2c(c1)nc(Nc1nc3ccc(C(F)(F)F)cc3o1)n2C (centres unmarked)")
30
>>> number("Cn1c(Nc2nc3ccc(C(F)(F)F)cc3o2)nc2cc(C(=O)NCCN3CCCCC3)ccc21")
28
>>> number("COCCONC(=O)c1ccc2c(c1)nc(Nc1nc3ccc(C(C)=O)cc3o1)n2C")
39
>>> number("CC(O)CONC(=O)c1ccc2c(c1)nc(Nc1nc3ccccc3o1)n2C (centres unmarked)")
26
>>> number("COCCNC(=O)c1ccc2c(c1)nc(Nc1nc3ccccc3[nH]1)n2C")
5.5
>>> number("CN1CC(c2ccc3nc(Nc4nc5cc(C(=O)NCCOCCO)ccc5n4C)oc3c2)OC1=O (centres unmarked)")
1
